- System: OVCAR-3
- assay.details: NCI DTP cell line screen (SRB), Ovarian Cancer
- Format: cell-based
- run.conditions: read-out: LC50 (the source's name)
observation.type: CC50 (µM)
Field: numeric (µM). Do not append units.

## Task Entry under review: N=C(N)Nc1ccc(-n2nc(C(F)(F)F)cc2-c2ccc3c(ccc4ccccc43)c2)cc1 . Reported CC50?
## Result 5.2

----------
- Test system: LOX IMVI
- assay.details: NCI DTP cell line screen (SRB), Melanoma
- Type: cell-based
- run.conditions: read-out: LC50 (the source's name)
observation.type: CC50 (µM)
Field: numeric (µM). Do not append units.

## Task Lookup: CC50 / LOX IMVI / N=C(N)Nc1ccc(-n2nc(C(F)(F)F)cc2-c2ccc3c(ccc4ccccc43)c2)cc1 [Compound 71]
## Result 5.22

Origin of the recorded values: patent US8541460B2
